Provenance of the data: paper PMC8347774

// reported koff for each item listed
Biological target: T1, biotinylated His6 peptide (bio-EGGGSHHHHHH-COOH) (synthetic peptide, SMILES …)
T1 construct: spacer EGGGS and His6; Held on streptavidin biosensors by its biotin; source: synthetic peptide (PSSM-8 peptide synthesizer)
T1 chain: Biotin-EGGGSHHHHHH-OH
Assay: BLI; biotinylated His6 peptide (100 nM) loaded on streptavidin biosensors; unlabeled protein or Q-body in two-fold dilutions in Kinetic buffer (phosphate, 150 mM NaCl, 0.002% Tween20, 0.1% BSA, pH 7.4); global fit, 1:1 model; Octet K2
Details: both partners purified
The star is where a group is joined. Biotin = O=C1N[C@H]2[C@H](CS[C@H]2CCCCC(=O)*)N1
Response body: numeric value in s⁻¹, unit text excluded.

-- ask koff for 5-TAMRA C6 maleimide-labeled wild-type scFv 3D5 Q-body (scFv, V domains shown, VH of antibody 3D5, as in m1; linker between VH and VL, as in m1; VL of antibody 3D5, as in m1; m1 labelled with one dye; also called wild-type scFv Q-body; source: E. coli SHuffle T7 Express with pGro7, purified (Talon IMAC), labelled, purified (anti-FLAG M2 beads, G-25); not shown: Cys-tag, N-terminal, kept; His6, C-terminal, kept; FLAG, C-terminal, kept) VH: QVQLQQSGPEDVKPGASVKISCKASGYTFTDYYMNWVKQSPGKGLEWIGDINPNNGGTSYNQKFKGRATLTVDKSSSTAYMELRSLTSEDSSVYYCESQSGAYWGQGTTVTVSA VL: DILMTQTPSSLPVSLGDQASISCRSSQSIVHSNGNTYLEWYLQKPGQSPKLLIYKVSNRFSGVPDRFSGSGSGTDFTLKISRVEAEDLGVYYCFQGSHVPFTFGSGTKLEIK ?
-- reply 0.00303

***
-- ask koff for anti-His scFv 3D5 (wild-type) (scFv, V domains shown, VH of antibody 3D5 (anti-C-terminal His tag); numbers count on: Kabat numbering of the heavy chain; linker between VH and VL of the VH-VL type scFv (synthesised gene in pEX-K4J2-1KTR); VL of antibody 3D5; VH-VL order, vector pSQ (3D5); also called wild-type scFv; source: E. coli SHuffle T7 Express with pGro7, purified (Talon IMAC); not shown: Cys-tag, N-terminal, kept; His6, C-terminal, kept; …) VH: QVQLQQSGPEDVKPGASVKISCKASGYTFTDYYMNWVKQSPGKGLEWIGDINPNNGGTSYNQKFKGRATLTVDKSSSTAYMELRSLTSEDSSVYYCESQSGAYWGQGTTVTVSA VL: DILMTQTPSSLPVSLGDQASISCRSSQSIVHSNGNTYLEWYLQKPGQSPKLLIYKVSNRFSGVPDRFSGSGSGTDFTLKISRVEAEDLGVYYCFQGSHVPFTFGSGTKLEIK ?
-- reply 0.000425

-- ask koff for anti-His Fab 3D5 YW variant (Fab, V domains shown, VH of antibody 3D5, as the VH of m7 with the stated change; numbers count on: Kabat numbering of the heavy chain; CH1 of the vector pUQ2, as in m7; VL of antibody 3D5, as the light chain of m7; CL of the vector pUQ2, as the light chain of m7; YW read as Tyr kept at 32H and Trp at 33H; source: E. coli SHuffle T7 Express with pGro7, purified (Talon IMAC); not shown: Cys-tag, N-terminal, kept; His6, …) VH: QVQLQQSGPEDVKPGASVKISCKASGYTFTDYWMNWVKQSPGKGLEWIGDINPNNGGTSYNQKFKGRATLTVDKSSSTAYMELRSLTSEDSSVYYCESQSGAYWGQGTTVTVSA VL: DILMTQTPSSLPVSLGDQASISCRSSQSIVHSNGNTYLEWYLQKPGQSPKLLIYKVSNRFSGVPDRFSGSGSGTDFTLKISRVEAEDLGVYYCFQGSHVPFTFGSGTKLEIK ?
-- reply 0.000105

-- ask koff for 5-TAMRA C6 maleimide double-labeled YW Fab 3D5 Q-body (Fab, V domains shown, VH of antibody 3D5, as the VH of m7 with the stated change; numbers count on: Kabat numbering of the heavy chain; CH1 of the vector pUQ2, as in m7; VL of antibody 3D5, as the light chain of m7; CL of the vector pUQ2, as the light chain of m7; m9 labelled with two dyes; also called YW TAMRA; source: E. coli SHuffle T7 Express with pGro7, purified (Talon IMAC), labelled, purified (anti-FLAG M2 …)) VH: QVQLQQSGPEDVKPGASVKISCKASGYTFTDYWMNWVKQSPGKGLEWIGDINPNNGGTSYNQKFKGRATLTVDKSSSTAYMELRSLTSEDSSVYYCESQSGAYWGQGTTVTVSA VL: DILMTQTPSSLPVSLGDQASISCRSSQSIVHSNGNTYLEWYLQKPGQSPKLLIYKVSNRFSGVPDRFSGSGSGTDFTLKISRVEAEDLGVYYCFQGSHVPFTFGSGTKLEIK ?
-- reply 0.000512

-- ask koff for anti-His Fab 3D5 (wild-type) (Fab, V domains shown, VH of antibody 3D5; numbers count on: Kabat numbering of the heavy chain; CH1 of the vector pUQ2 (Fd = VH-CH1); VL of antibody 3D5; CL of the vector pUQ2 (Lc = VL-CL); Linker-less pUQ2 (3D5): the (GGGS)4 linker between Cys-tag and VH was removed; His6 is followed by myc on the heavy chain; also called wild-type Fab; source: E. coli SHuffle T7 Express with pGro7, purified (Talon IMAC); not shown: …) VH: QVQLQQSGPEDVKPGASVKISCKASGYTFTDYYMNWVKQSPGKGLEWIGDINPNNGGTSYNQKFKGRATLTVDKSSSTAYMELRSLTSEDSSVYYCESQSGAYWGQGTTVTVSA VL: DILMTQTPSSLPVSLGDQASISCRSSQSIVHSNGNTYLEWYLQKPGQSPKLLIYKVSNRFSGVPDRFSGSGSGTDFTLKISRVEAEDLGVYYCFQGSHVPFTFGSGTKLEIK ?
-- reply 9.93e-05

-- ask koff for 5-TAMRA C6 maleimide double-labeled wild-type Fab 3D5 Q-body (Fab, V domains shown, VH of antibody 3D5, as in m7; CH1 of the vector pUQ2, as in m7; VL of antibody 3D5, as the light chain of m7; CL of the vector pUQ2, as the light chain of m7; m7 labelled with two dyes; also called Wild-type TAMRA; source: E. coli SHuffle T7 Express with pGro7, purified (Talon IMAC), labelled, purified (anti-FLAG M2 beads, G-25); not shown: Cys-tag, N-terminal, kept; His6, C-terminal, kept; myc, …) VH: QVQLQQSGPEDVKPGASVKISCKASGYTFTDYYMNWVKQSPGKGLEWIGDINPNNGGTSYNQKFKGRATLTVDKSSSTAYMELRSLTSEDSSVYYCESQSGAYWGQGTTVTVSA VL: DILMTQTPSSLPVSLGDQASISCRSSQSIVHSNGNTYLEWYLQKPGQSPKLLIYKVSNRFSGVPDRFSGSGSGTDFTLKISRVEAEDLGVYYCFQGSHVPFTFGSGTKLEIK ?
-- reply 0.000672
